Below, each of the binders is paired with its reported kon value.
Assayed target: T1, hVISTA-ECD 6-His tag (human, UniProt Q9H7M9 33-193)
T1 construct: also called monovalent hVISTA-ECD; human VISTA
T1 sequence (Q9H7M9 other isoform, or with tags, fused parts or gaps limits assumed): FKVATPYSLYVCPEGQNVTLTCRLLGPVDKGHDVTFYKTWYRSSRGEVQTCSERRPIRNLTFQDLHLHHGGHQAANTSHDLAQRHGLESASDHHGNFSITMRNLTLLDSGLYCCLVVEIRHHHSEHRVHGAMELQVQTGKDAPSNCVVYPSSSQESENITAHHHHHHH
Assay protocol: SPR 37 C, Ab on Protein A, pH 6.0
Outcome measure: kon (M⁻¹ s⁻¹)

# Binder, Outcome measure, Value
measured = [
    ("P1-077845 (P1-068744 E31S H50I) (antibody, V domains shown) VH: QVQLVESGGGVVQPGRSLRLSCAASGFTFSSYAMHWVRQAPGKGLEWVAIIWYDGSNKYEADSVKGRFTISRDNSKNTLYLQMNSLRAEDTAVYYCARDSGFYESYYFDEWGQGTLVTVSS VL: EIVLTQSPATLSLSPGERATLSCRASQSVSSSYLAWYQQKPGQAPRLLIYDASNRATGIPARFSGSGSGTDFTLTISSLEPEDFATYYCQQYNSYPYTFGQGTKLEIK", "kon", "1.2e+06"),
    ("P1-077839 (P1-068744 E59Y) (antibody, V domains shown) VH: QVQLVESGGGVVQPGRSLRLSCAASGFTFSEYAMHWVRQAPGKGLEWVAHIWYDGSNKYYADSVKGRFTISRDNSKNTLYLQMNSLRAEDTAVYYCARDSGFYESYYFDEWGQGTLVTVSS VL: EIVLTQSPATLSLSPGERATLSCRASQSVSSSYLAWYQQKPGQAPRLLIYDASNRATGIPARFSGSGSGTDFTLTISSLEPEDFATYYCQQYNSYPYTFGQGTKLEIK", "kon", 630000),
    ("P1-077843 (P1-068744 E102Y) (antibody, V domains shown) VH: QVQLVESGGGVVQPGRSLRLSCAASGFTFSEYAMHWVRQAPGKGLEWVAHIWYDGSNKYEADSVKGRFTISRDNSKNTLYLQMNSLRAEDTAVYYCARDSGFYESYYFDYWGQGTLVTVSS VL: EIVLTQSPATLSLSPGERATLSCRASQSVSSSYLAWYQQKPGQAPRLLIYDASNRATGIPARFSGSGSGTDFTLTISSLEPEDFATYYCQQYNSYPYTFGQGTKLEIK", "kon", 150000),
]
